- measurementProtocol: IC50 DNA/IC50 RNA ratio of the compound
- Assay type: functional
The following compounds are listed with their measured Ratio values.
Please reply with the number alone, leaving off any unit.

Answered examples (2):
INSERT INTO assay_data (smilesnotation, number) VALUES
  ('Cc1c2oc3c(C)c4oc(-c5ccccc5)nc4c(C(=O)N[C@H]4C(=O)N[C@@H](C(C)C)C(=O)N5CCC[C@H]5C(=O)N(C)CC(=O)N(C)[C@H](C(C)C)C(=O)O[C@H]4C)c3nc-2c(C(=O)N[C@@H]2C(=O)N[C@H](C(C)C)C(=O)N3CCC[C@@H]3C(=O)N(C)CC(=O)N(C)[C@@H](C(C)C)C(=O)O[C@@H]2C)c(N)c1=O', 11.4),
  ('Cc1c2oc3c(C)c(O)c(N)c(C(=O)N[C@H]4C(=O)N[C@@H](C(C)C)C(=O)N5CCC[C@H]5C(=O)N(C)CC(=O)N(C)[C@H](C(C)C)C(=O)O[C@H]4C)c3nc-2c(C(=O)N[C@@H]2C(=O)N[C@H](C(C)C)C(=O)N3CCC[C@@H]3C(=O)N(C)CC(=O)N(C)[C@@H](C(C)C)C(=O)O[C@@H]2C)c(N)c1=O', 0.97);

Turning now to a further compound:
Problem: Recorded Ratio for Cc1c2oc3c(C)c(O)c(N)c(C(=O)N[C@H]4C(=O)N[C@@H](C(C)C)C(=O)N5CCC[C@H]5C(=O)N(C)CC(=O)N(C)[C@H](C(C)C)C(=O)O[C@H]4C)c3nc-2c(C(=O)N[C@@H]2C(=O)N[C@H](C(C)C)C(=O)N3CCC[C@@H]3C(=O)N(C)CC(=O)N(C)[C@@H](C(C)C)C(=O)O[C@@H]2C)cc1=O , please?
Solution: 1
